# experiment summary: Preliminary evaluation of pharmacokinetics in Beagle dogs
# Assay type: in vivo
# condition parameters: Beagle, dog, plasma, po, 3 mg/kg, Beagle dogs; intragastric 3 mg/kg; individual animals 4-6
recorded endpoint: half-life (h)
# value in h; strip the unit string

Task item: Request the reported half-life associated with CC(C)Oc1ccc(-c2nc(-c3ccc(CN4CC(C(=O)O)C4)c4ccccc34)no2)cc1C#N.Cl
Reply: 1.3

----------
# experiment summary: Preliminary assessment of in vivo pharmacokinetics in rats
# condition parameters: rat, plasma, iv, 2 mg/kg, intravenous 2 mg/kg; 0.5 h; mean; read-out: Plasma drug concentrations in rats
recorded endpoint: concentration at 0.5 h (ng/mL)
The reply should be a number in ng/mL, with the unit left off.

Task item: Data request, read-out concentration at 0.5 h, for CC(C)Oc1ccc(-c2nc(-c3ccc(CN4CC(C(=O)O)C4)c4ccccc34)no2)cc1C#N.Cl
Reply: 1720
